target: MAGE-A11:PCF11 (Homo sapiens (Human), UniProt P43364); assay: TR-FRET single point screening at 15 μM; assay type: binding; parameters: unit not given here; conditions: single point TR-FRET screening at 15 μM against MAGE-A11:PCF11
Sequence (P43364 218-429): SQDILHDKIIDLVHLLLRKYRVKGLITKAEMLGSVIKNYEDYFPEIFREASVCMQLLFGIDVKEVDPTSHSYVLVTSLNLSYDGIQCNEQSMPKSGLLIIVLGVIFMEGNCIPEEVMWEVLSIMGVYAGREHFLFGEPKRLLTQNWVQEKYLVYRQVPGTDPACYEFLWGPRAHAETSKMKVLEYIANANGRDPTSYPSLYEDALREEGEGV
TR-FRET signal strictly under -90 means MET; at -90 or over means NOT MET.

Solved cases (3 shown):
| COMPOUND | CLASS |
| --- | --- |
| COc1ccc(O)c(CN(CCCCNc2ccnc3cc(Cl)ccc23)Cc2ccccc2)c1 [SJ000312696] | NOT MET |
| COc1ccc2nc3cc(Cl)ccc3c(NCCCNCc3ccco3)c2c1 [SJ000523032] | MET |
| Cc1ccc(S(=O)(=O)c2cnc3ccccc3c2N2CCN(c3ccc(F)cc3)CC2)cc1 [SJ000117057] | NOT MET |

Problem: For this compound, is TR-FRET signal lower than -90? COc1ccc2nc3cc(Cl)ccc3c(NCCCNCc3c(F)cccc3OC)c2c1 [SJ000520915]
Result: MET

Problem: Would you kindly verify if TR-FRET signal of CCCN(CCCNc1c2ccc(Cl)cc2nc2ccc(OC)cc12)Cc1cccc(OC)c1 [SJ000520961] is strictly less than -90?
Result: MET

Problem: Lab note: TR-FRET signal threshold -90. Does this compound come in strictly under it? CCC(C)CN(CCCCNc1ccnc2cc(Cl)ccc12)Cc1ccccc1 (stereo not drawn) [SJ000361208]
Result: NOT MET

Problem: Please check: TR-FRET signal for CCOC(=O)c1cnc2c(Cl)cc(Cl)cc2c1NCCN1CCOCC1 [SJ000175864] , strictly under -90 or not?
Result: NOT MET

Problem: Below -90 on TR-FRET signal? Entry CCCN(CCCNc1c2ccc(Cl)cc2nc2ccc(OC)cc12)Cc1ccccc1F [SJ000520944]
Result: MET

Problem: For this compound, is TR-FRET signal lower than -90? CCOc1ccc2ncc(C(=O)c3ccccc3)c(N3CCN(CC)CC3)c2c1 [SJ000247283]
Result: NOT MET

Problem: Item CCc1ccc(S(=O)(=O)c2cnc3ccccc3c2N2CCN(c3ccccc3)CC2)cc1 [SJ000117053] : TR-FRET signal beneath -90, strictly?
Result: NOT MET

Problem: For the compound COc1ccc2nc3cc(Cl)ccc3c(NCCCNCc3cccc(C#N)c3)c2c1 [SJ000523037] , is TR-FRET signal under -90?
Result: MET

Problem: Report whether reported TR-FRET signal is lower than -90 (strictly) for CCCN(CCCNc1c2ccc(Cl)cc2nc2ccc(OC)cc12)Cc1ccc(OC)cc1 [SJ000520943]
Result: MET

Problem: Is TR-FRET signal strictly under -90 for the entry Cc1ccc(F)cc1CN(CCCCNc1ccnc2cc(Cl)ccc12)Cc1ccccc1 [SJ000520449] ?
Result: NOT MET

Problem: State whether -90 exceeds TR-FRET signal recorded for COc1ccc2ncc(S(=O)(=O)c3ccc(C)cc3)c(N3CCN(c4ccccc4)CC3)c2c1 [SJ000117048] .
Result: NOT MET

Problem: Hi there! Is TR-FRET signal for CCCN(CCCNc1c2ccc(Cl)cc2nc2ccc(OC)cc12)Cc1cccc(C)c1 [SJ000520954] below -90, do you know?
Result: MET

Problem: Find out if reported TR-FRET signal for Clc1ccc2c(NC3CCN(CCCc4ccccc4)CC3)ccnc2c1 [SJ000523104] is less than -90
Result: NOT MET

Problem: Input Cc1ccc2ncc(S(=O)(=O)c3ccccc3)c(N3CCN(c4ccccc4)CC3)c2c1 [SJ000083973] ; condition: TR-FRET signal strictly below -90. Does it hold?
Result: NOT MET

Problem: Lab log: compare recorded TR-FRET signal with -90; is it strictly lower for COc1ccc2nc3cc(Cl)ccc3c(NCCCNCc3ccoc3)c2c1 [SJ000520916] ?
Result: MET
